assay: Phase I SAD study (P1-IMU-838-SAD): plasma concentration after single dose; format: in vivo; details: human, oral, single dose 10 mg IMU-838, fasted male healthy volunteers, read-out: maximum plasma concentrations (cmax)
Property Measured: Cmax (ng/mL)
Respond with the bare value in ng/mL.

[Q] Endpoint output: Cmax of COc1cccc(-c2ccc(NC(=O)C3=C(C(=O)O)CCC3)c(F)c2)c1 . Value?
[A] 1580

###

test: Phase I SAD study (P1-IMU-838-SAD): plasma concentration after single dose; type: in vivo; conditions: male, human, oral, single dose 40 mg IMU-838, fasted, read-out: maximum plasma concentrations (cmax)
Property Measured: Cmax (ng/mL)
Just the number in ng/mL, nothing appended.

[Q] Could you share which Cmax value was measured for COc1cccc(-c2ccc(NC(=O)C3=C(C(=O)O)CCC3)c(F)c2)c1 ?
[A] 7860

Ref: patent US12629347B2
